# Test system: MS2 coat protein
# Experiment: apparent KD of MS2 coat protein; higher = weaker reporter binding
# Test context: Eterna round: R107; input ligand: theophylline 20 uM
Each record's class is read off its apparent KD of MS2 coat protein using these ranges: lo (below 30 nM), med (30 nM to below 50 nM), hi (50 nM or more)

Solved entries:
UAGUCCGCGACGGCCGCCACUCGCUGAUGCACAUGUGUCCGGGACAUGAGGAUCACCCAUGUUUCGAGGACCGGGUCGAUCCUAA [Same State Tryptophan B GF 5] | hi
CCUAUGCAGUCGGCCGCCACUGAACAUGAGGAUCACCCAUGUAAUUAAAAUUAAGGUCCUAAAAUCAGGACCGGGACUGUAUAGG [Ex Tryptophan B 6] | med
UAGAAGAACAUGCGGGCUCCGGACGGUGAUACCAGAUCGAAAAGGAUCCCUUGGCAGCACUGCACAUGAGGAUCACCCAUGUGCA [theeternabot_exclusion_MS2_Theo_A_7] | lo

Query string: Categorize the following entry: GGGCGCGUGGACCGGCGUGCUCCGCUCCGUCGAGGACCGGUACGGCCGCCACUCGACAUGAGGAUCACCCAUGUGCGAGCUCGCG [#1 Exclusion - Tryptophan A Attempt #15 (HarryS)]
Result string: med

Query string: Categorize the following entry: GGAGUAGGAAACUAUUCCAAUCCUCGUGAACGAGGACCGGUACGGCCGCCACUCGAUAAAUAAAUACAUGAGGAUCACCCAUGUA [Ex Tryptophan A 22]
Result string: lo

Query string: Categorize the following entry: AAAAGAGGUGGAAGGAGCGGGAGACAUGAGGAUCACCCAUGUGAAGUUACGAAAGGUUCAGCCCAGGUAGGUCGCCAUGUCGAAA [eefemullin]
Result string: hi

----------
Give measured apparent KD of MS2 coat protein for each item. Keep answers brief.
# System: MS2 coat protein
# Experiment: apparent KD of MS2 coat protein; designed switch direction (-1 OFF switch, 1 ON switch): -1; higher = weaker reporter binding
# Test context: input ligand: microRNA oligo, concentration not stated
Give bare numbers, in nM.

Would you please look over these solved cases?
ACAUGAGGAUCACCCAUGUGCACGUAAUGGCUCAUGUAGAGAGAGGAUAUGUGUGACGAACGAGCACAGAAGGCUCAAGACUGG [Deportation 14 - Jieux - Exclusion NG 3] (Eterna round: R96, puzzle: Exclusion NG 3) | 133
GCACGGAUGGUAGGAUAUCCUUGCGAUUAGCAAGGAGAAGGACCACAUGAGGAUCACCCAUGUACCUCAAUUAUCCUUCCGUGC [Eli exng1 - 023] (Eterna round: R96, puzzle: Exclusion NG 1) | 9.18
UUGUUGUAUGUAGGAUAUGCGUAUUAUUAUUAUGCAGAAGGACAUGAGGAUCACCCAUGUAUAUUAUUAUUAUAUGUUAUAUAU [Title] (Eterna round: R96, puzzle: Exclusion NG 1) | 17.9
CAUGAUUGGCGAGGAUAUUGACCUAGUUAGCGACGAGAAGGCGCCUGUCACAUGAGGAUCACCCAUGUGAAUCUGGUGAAAGAG [Ex NG1 #92] (Eterna round: R96, puzzle: Exclusion NG 1) | 13.3
AACCUGAGGCAAAGCUUUAGGUGUACAUGAGGAUCACCCAUGUAGGAUAUGGUAGGCAAAGCUUACCAGAAGGACAUUGGCGUA [Mat - Exclusion NG 3 - Mod of JL - D41] (Eterna round: R96, puzzle: Exclusion NG 3) | 93.8
AGCUGUGGCCGAGGAUAUACAUGAGGAUCACCCAUGUUACAUAAUUAGGCCUGGUAACAGGCUCCGUAGAAGGCGGUCUCAGCA [Eli eng2 - 005] (Eterna round: R96, puzzle: Exclusion NG 2) | 11.4
UGUUUAUAUGAAGGAUAUACUUAACAUGAGGAUCACCCAUGUGGUGUUGUGAGUGAGUGAGUUUAGUAGAAGGUCAAUUAUUUU [JMF's solution 31] (Eterna round: R96, puzzle: Exclusion NG 2) | 303
AAUUUUUGAUACCUUUAAUACAUGAGGAUCACCCAUGUUAUCGAGGAUAUGUAGAUGAAAUGAGAACAGAAGGCGAAGUAAGAG [JR_ExcNG3_Sub099] (Eterna round: R96, puzzle: Exclusion NG 3) | 3.24

List the reported apparent KD of MS2 coat protein of each sequence below.
1. UCGCUCCGUGUAGGAUAUCGCCGUUCUACUCGGCGAGAAGGACAUGAGGAUCACCCAUGUAUGUUAUUAUCACGUGUGGCGCGC [Design 54] (Eterna round: R96, puzzle: Exclusion NG 1)
2. GUCACCUCGGUGACAAAGCACAUGAGGAUCACCCAUGUAUGUGCUUGGAAACAAGCAUUUUGUUCGUCUUAUAAGAA [same principle] (Eterna round: R96, puzzle: Sensor v2, turn-off variant)
3. CUGCUCCGUGUAGGAUAUCGCCGCACCACCCGGCGAGAAGGACAUGAGGAUCACCCAUGUAUGUUAUUAUCACGUGUGGCGCGA [Design 41] (Eterna round: R96, puzzle: Exclusion NG 1)
4. ACAUGUGUUGUAGGAUAUAGUGGACAUGAGGAUCACCCAUGUUGAUUCAUGUCUAUGGAAACGUACUAGAAGGACGACAAUAUG [Ex NG2 #18] (Eterna round: R96, puzzle: Exclusion NG 2)
5. UAUAUAUAGUAAGGAUAUGUAUUAAUUUUAUAAACAGAAGGUACUGACAUGAGGAUCACCCAUGUUUUAGUGUGGGCAUGUAGA [JMF's solution 9] (Eterna round: R96, puzzle: Exclusion NG 1)
6. UUUCAUCAUGUAGGAUAUGCGUGGCGAAGCUAUGCAGAAGGACAUGAGGAUCACCCAUGUUCUUGCGUCUGCGUACAGAUGCAA [JL ENG1 1.34] (Eterna round: R96, puzzle: Exclusion NG 1)
7. UUUUUAAAUGAAGGAUAUACUUAACAUGAGGAUCACCCAUGUGGUGUUGUGAGUGAGUGAGUUUAGUAGAAGGUCAAUUAUUUU [JMF's solution 20] (Eterna round: R96, puzzle: Exclusion NG 2)
8. UACAUGAGGAUCACCCAUGUUUUGUCGUGUAUGGUAUUUAUCUAGGAUAUCAUUCUAUUUAUUUAUGAGAAGGAGAAUAUUAAU [JMF's solution 98] (Eterna round: R96, puzzle: Exclusion NG 3)

Result string:
14.2
95.4
13.9
875
72.8
35.5
287
23.5

List the reported apparent KD of MS2 coat protein of each sequence below.
1. AAAUACCGGUGAGGAUAUUUAUAAUAGAACUUUAUGAUAUACAUGAGGAUCACCCAUGUUACUUUAAAGAAGGCAUCGGAUAAA [Mat - Exclusion NG 2 - Mod of JL - D89] (Eterna round: R96, puzzle: Exclusion NG 2)
2. GCUGACAAGCUGGAGACAGCAGAGACAUGAGGAUCACCCAUGUAGGAUAUCGAUGCGAAAAGCAUCGAGAAGGGCAUAGUCAGC [exng3 v2 a] (Eterna round: R96, puzzle: Exclusion NG 3)

Result string:
1: 13.9; 2: 9.71
